System: UMC-11
EXPERIMENT: relative viability (nuclei count vs DMSO), 5 days (fraction); higher = more cells survive
MEASUREMENT CONTEXT: first compound 0.3162 µM
METRIC NAME: relative viability
Numbers only.

Use the examples below as a reference point.
MOLECULE: CCN(CC)CCCCNc1ncc2cc(-c3cc(OC)cc(OC)c3)c(NC(=O)NC(C)(C)C)nc2n1 + COc1cccc2cc(-c3nc([C@H]4CC[C@H](C(=O)O)CC4)n4ncnc(N)c34)[nH]c12 [OSI-027] (partner 0.5 µM)
relative viability: 0.485
//
MOLECULE: CCN(CC)CCCCNc1ncc2cc(-c3cc(OC)cc(OC)c3)c(NC(=O)NC(C)(C)C)nc2n1 + CC(=O)c1c(C)c2cnc(Nc3ccc(N4CCNCC4)cn3)nc2n(C2CCCC2)c1=O [Palbociclib] (partner 0.5 µM)
relative viability: 0.313
//
MOLECULE: CCN(CC)CCCCNc1ncc2cc(-c3cc(OC)cc(OC)c3)c(NC(=O)NC(C)(C)C)nc2n1 + CCNC(=O)c1noc(-c2cc(C(C)C)c(O)cc2O)c1-c1ccc(CN2CCOCC2)cc1 [Luminespib] (partner 0.01 µM)
relative viability: 1.04

Looking up CCN(CC)CCCCNc1ncc2cc(-c3cc(OC)cc(OC)c3)c(NC(=O)NC(C)(C)C)nc2n1 + Cc1nc(Nc2ncc(C(=O)Nc3c(C)cccc3Cl)s2)cc(N2CCN(CCO)CC2)n1 [Dasatinib] (partner 0.075 µM) , I found its relative viability recorded as 0.581

====

Test system: NCI-H596
EXPERIMENT: relative viability (nuclei count vs DMSO), 5 days (fraction); higher = more cells survive
MEASUREMENT CONTEXT: first compound 0.8 µM
METRIC NAME: relative viability
Answers are plain numbers.

Record excerpt, results attached:
MOLECULE: O=c1cc(-c2cccc3c2Sc2ccccc2S3)oc(N2CCOCC2)c1 + CC(=O)Nc1cccc(-n2c(=O)n(C3CC3)c(=O)c3c(Nc4ccc(I)cc4F)n(C)c(=O)c(C)c32)c1 [Trametinib] (partner 0.02 µM)
RECORDED RESULT: 0.823
//
MOLECULE: O=c1cc(-c2cccc3c2Sc2ccccc2S3)oc(N2CCOCC2)c1 + COc1cc2c(Oc3ccc(NC(=O)C4(C(=O)Nc5ccc(F)cc5)CC4)cc3F)ccnc2cc1OCCCN1CCOCC1 [Foretinib] (partner 0.25 µM)
RECORDED RESULT: 0.969
//
MOLECULE: COc1nc(C)cnc1NS(=O)(=O)c1cccnc1-c1ccc(-c2nnco2)cc1 [Zibotentan] + Cc1nc(Nc2ncc(C(=O)Nc3c(C)cccc3Cl)s2)cc(N2CCN(CCO)CC2)n1 [Dasatinib] (partner 0.075 µM)
RECORDED RESULT: 0.538

Go through the list and state relative viability for each entry.
1. COc1nc(C)cnc1NS(=O)(=O)c1cccnc1-c1ccc(-c2nnco2)cc1 [Zibotentan] + CCNC(=O)c1noc(-c2cc(C(C)C)c(O)cc2O)c1-c1ccc(CN2CCOCC2)cc1 [Luminespib] (partner 0.01 µM)
2. COc1nc(C)cnc1NS(=O)(=O)c1cccnc1-c1ccc(-c2nnco2)cc1 [Zibotentan] + N=C(N)NC(=N)NCCc1ccccc1 [Phenformin] (partner 250 µM)

Reply text:
1. 1.16
2. 0.794

Report relative viability for every entry below.
1. O=c1cc(-c2cccc3c2Sc2ccccc2S3)oc(N2CCOCC2)c1 + Cc1cc(Nc2cc(N3CCN(C)CC3)nc(Sc3ccc(NC(=O)C4CC4)cc3)n2)n[nH]1 [Tozasertib] (partner 0.1 µM)
2. O=c1cc(-c2cccc3c2Sc2ccccc2S3)oc(N2CCOCC2)c1 + C[C@]1(O)C[C@@H](c2nc(-c3ccc4ccc(-c5ccccc5)nc4c3)c3c(N)nccn32)C1 [Linsitinib] (partner 1 µM)

Reply text:
1.08
1.14

====

Tested on: NCI-H596
EXPERIMENT: relative viability (nuclei count vs DMSO), 5 days (fraction); higher = more cells survive
MEASUREMENT CONTEXT: first compound 0.2 µM
Could you please mark true (1) for values of relative viability below 0.8 and false (0) for values at or above it?

COMPOUND: COCC1(CO)C(=O)C2CCN1CC2 (stereo not given) [PRIMA-1MET] + N=C(N)NC(=N)NCCc1ccccc1 [Phenformin] (partner 250 µM)
DISCRETE LABEL: true (1)
--
COMPOUND: COCC1(CO)C(=O)C2CCN1CC2 (stereo not given) [PRIMA-1MET] + Cc1cc(Nc2cc(N3CCN(C)CC3)nc(Sc3ccc(NC(=O)C4CC4)cc3)n2)n[nH]1 [Tozasertib] (partner 0.1 µM)
DISCRETE LABEL: false (0)
--
COMPOUND: COCC1(CO)C(=O)C2CCN1CC2 (stereo not given) [PRIMA-1MET] + CCNC(=O)c1noc(-c2cc(C(C)C)c(O)cc2O)c1-c1ccc(CN2CCOCC2)cc1 [Luminespib] (partner 0.01 µM)
DISCRETE LABEL: false (0)
--
COMPOUND: COCC1(CO)C(=O)C2CCN1CC2 (stereo not given) [PRIMA-1MET] + Cc1nc(Nc2ncc(C(=O)Nc3c(C)cccc3Cl)s2)cc(N2CCN(CCO)CC2)n1 [Dasatinib] (partner 0.075 µM)
DISCRETE LABEL: true (1)

Okay, next one:
Inquiry: Say whether its relative viability is strictly beneath 0.8. Entry: COCC1(CO)C(=O)C2CCN1CC2 (stereo not given) [PRIMA-1MET] + O=C(c1cc(Cc2n[nH]c(=O)c3ccccc23)ccc1F)N1CCN(C(=O)C2CC2)CC1 [Olaparib] (partner 8 µM)
Reply text: true (1)

====

Tested on: NCI-H596
EXPERIMENT: relative viability (nuclei count vs DMSO), 5 days (fraction); higher = more cells survive
MEASUREMENT CONTEXT: first compound 8 µM
METRIC NAME: relative viability
One number for each entry.

COMPOUND: O=c1cc(-c2cccc3c2Sc2ccccc2S3)oc(N2CCOCC2)c1 + CC1(C)CCC(c2ccc(Cl)cc2)=C(CN2CCN(c3ccc(C(=O)NS(=O)(=O)c4ccc(N[C@H](CCN5CCOCC5)CSc5ccccc5)c(S(=O)(=O)C(F)(F)F)c4)cc3)CC2)C1 [Navitoclax] (partner 0.5 µM)
RECORDED RESULT: 1.14

COMPOUND: O=c1cc(-c2cccc3c2Sc2ccccc2S3)oc(N2CCOCC2)c1 + C[C@]1(O)C[C@@H](c2nc(-c3ccc4ccc(-c5ccccc5)nc4c3)c3c(N)nccn32)C1 [Linsitinib] (partner 1 µM)
RECORDED RESULT: 1.15

COMPOUND: O=c1cc(-c2cccc3c2Sc2ccccc2S3)oc(N2CCOCC2)c1 + Cc1nc(Nc2ncc(C(=O)Nc3c(C)cccc3Cl)s2)cc(N2CCN(CCO)CC2)n1 [Dasatinib] (partner 0.075 µM)
RECORDED RESULT: 0.594

The measured relative viability associated with O=c1cc(-c2cccc3c2Sc2ccccc2S3)oc(N2CCOCC2)c1 + C[C@@H](Oc1cc(-c2cnn(C3CCNCC3)c2)cnc1N)c1c(Cl)ccc(F)c1Cl [Crizotinib] (partner 1 µM) reads 0.806

====

Give relative viability for every item shown.
System: EPLC-272H
EXPERIMENT: relative viability (nuclei count vs DMSO), 5 days (fraction); higher = more cells survive
MEASUREMENT CONTEXT: first compound 0.253 µM
One number for each entry.

MOLECULE: COc1nc(C)cnc1NS(=O)(=O)c1cccnc1-c1ccc(-c2nnco2)cc1 [Zibotentan] + Nc1nc2[nH]cc(CCc3ccc(C(=O)N[C@@H](CCC(=O)O)C(=O)O)cc3)c2c(=O)[nH]1 [Pemetrexed] (partner 0.2 µM)
relative viability: 0.319

Hi! Can you tell me relative viability for each of these molecules?
1. COc1nc(C)cnc1NS(=O)(=O)c1cccnc1-c1ccc(-c2nnco2)cc1 [Zibotentan] + C[C@]1(O)C[C@@H](c2nc(-c3ccc4ccc(-c5ccccc5)nc4c3)c3c(N)nccn32)C1 [Linsitinib] (partner 1 µM)
2. O=c1cc(-c2cccc3c2Sc2ccccc2S3)oc(N2CCOCC2)c1 + CC(C)C[C@H](NC(=O)[C@H](Cc1ccccc1)NC(=O)c1cnccn1)B(O)O [Bortezomib] (partner 0.002 µM)
3. COc1nc(C)cnc1NS(=O)(=O)c1cccnc1-c1ccc(-c2nnco2)cc1 [Zibotentan] + N=C(N)NC(=N)NCCc1ccccc1 [Phenformin] (partner 250 µM)
4. O=c1cc(-c2cccc3c2Sc2ccccc2S3)oc(N2CCOCC2)c1 + Cc1nc(Nc2ncc(C(=O)Nc3c(C)cccc3Cl)s2)cc(N2CCN(CCO)CC2)n1 [Dasatinib] (partner 0.075 µM)
5. O=c1cc(-c2cccc3c2Sc2ccccc2S3)oc(N2CCOCC2)c1 + O=C(c1cc(Cc2n[nH]c(=O)c3ccccc23)ccc1F)N1CCN(C(=O)C2CC2)CC1 [Olaparib] (partner 8 µM)
6. COc1nc(C)cnc1NS(=O)(=O)c1cccnc1-c1ccc(-c2nnco2)cc1 [Zibotentan] + NC(=O)Nc1cc(-c2cccc(F)c2)sc1C(=O)N[C@H]1CCCNC1 [AZD7762] (partner 0.2 µM)
7. COc1nc(C)cnc1NS(=O)(=O)c1cccnc1-c1ccc(-c2nnco2)cc1 [Zibotentan] + Cc1nc(Nc2ncc(C(=O)Nc3c(C)cccc3Cl)s2)cc(N2CCN(CCO)CC2)n1 [Dasatinib] (partner 0.075 µM)
8. O=c1cc(-c2cccc3c2Sc2ccccc2S3)oc(N2CCOCC2)c1 + COc1cccc2cc(-c3nc([C@H]4CC[C@H](C(=O)O)CC4)n4ncnc(N)c34)[nH]c12 [OSI-027] (partner 0.5 µM)

Reply text:
1. 1.23
2. 1.09
3. 0.296
4. 0.397
5. 0.896
6. 0.261
7. 0.287
8. 0.279

For each of the items listed, what is its relative viability?
1. O=c1cc(-c2cccc3c2Sc2ccccc2S3)oc(N2CCOCC2)c1 + CC1(C)CCC(c2ccc(Cl)cc2)=C(CN2CCN(c3ccc(C(=O)NS(=O)(=O)c4ccc(N[C@H](CCN5CCOCC5)CSc5ccccc5)c(S(=O)(=O)C(F)(F)F)c4)cc3)CC2)C1 [Navitoclax] (partner 0.5 µM)
2. O=c1cc(-c2cccc3c2Sc2ccccc2S3)oc(N2CCOCC2)c1 + Nc1ncn([C@H]2C[C@H](O)[C@@H](CO)O2)c(=O)n1 [Decitabine] (partner 2 µM)
3. O=c1cc(-c2cccc3c2Sc2ccccc2S3)oc(N2CCOCC2)c1 + CC(=O)c1c(C)c2cnc(Nc3ccc(N4CCNCC4)cn3)nc2n(C2CCCC2)c1=O [Palbociclib] (partner 0.5 µM)

Reply text:
1: 1.17; 2: 0.409; 3: 0.318

// provenance: the supplement of paper PMC10307832
